Reference source for all entries: PubChem BioAssay (NCATS)

# System: MCC-26
# protocolNotes: qHTS assay to identify novel small-molecules to repurpose for Merkel cell carcinoma treatment (AID 1296009); further: nearly all actives have a fitted effect of over 60% in size; further: potency means the concentration at half of the fitted maximal effect
# experimentalParameters: MCC and control cell lines, CellTiter-Glo viability, 72 h; series mostly up to 46 µM
Results filed as inconclusive are left out. Active and inactive are the calls of the source. The call rests on the fitted dose curve; in most records, active means well fitted inhibition curve with a large enough effect; inconclusive means small, poorly fitted or top-dose-only effect; inactive means flat fitted curve, though single readings scatter.

molecule	systemTested	Potency
CC(C)C[C@H](NC(=O)CNC(=O)c1cc(Cl)ccc1Cl)B(O)O	MCC-26	0.526 µM (active)
CC1COC2(CCN(c3nc(=O)c4cc(C(F)(F)F)cc([N+](=O)[O-])c4s3)CC2)O1 (stereo not given)	MCC-26	inactive
CCc1cc2c(cc1N1CCC(N3CCOCC3)CC1)C(C)(C)c1[nH]c3cc(C#N)ccc3c1C2=O	MCC-26	inactive
CC(C)(O)CCc1ccc(OCc2cc(-c3cccc(OC(F)F)c3)c3ncccc3c2)cc1	MCC-26	inactive
C1Cc2[nH]nc(-c3nn[nH]n3)c2C1	MCC-26	inactive
CC(=O)Nc1sc2c(c1-c1nc3ccccc3s1)CNC2	MCC-26	inactive
C[C@]12CC[C@H](O)CC1=CCC1C2CC[C@]2(C)C(n3cnc4ccccc43)=CCC12 (stereo not given in full)	MCC-26	inactive
COc1cc2c(cc1-c1c(C)noc1C)ncc1[nH]c(=O)n([C@H](C)c3ccccn3)c12	MCC-26	23.5 µM (active)
O=C(Nc1cn[nH]c1-c1nc2ccc(CN3CCOCC3)cc2[nH]1)NC1CC1	MCC-26	1.87 µM (active)
CCS(=O)(=O)c1cccc(-c2cc(C(=O)NC3CCN(C)CC3)c(C)c3[nH]c4ncc(C)cc4c23)c1	MCC-26	4.69 µM (active)
CC(C)(C)NC(=O)[C@H]1CN(Cc2cccnc2)CCN1C[C@@H](O)C[C@@H](Cc1ccccc1)C(=O)N[C@H]1c2ccccc2C[C@H]1O	MCC-26	inactive
C=CC(=O)Nc1cc2c(Nc3ccc(F)c(Cl)c3)ncnc2cc1C#CC(C)(C)N1CCN(C)CC1	MCC-26	10.5 µM (active)
COCCn1c2c([n+](Cc3cnccn3)c1C)C(=O)c1ccccc1C2=O	MCC-26	0.296 µM (active)
CCN(CC)CCCCNc1ncc2cc(-c3cc(OC)cc(OC)c3)c(NC(=O)NC(C)(C)C)nc2n1	MCC-26	inactive
Clc1cccc(-n2nnnc2NCc2ccccc2Oc2ccccn2)c1Cl	MCC-26	inactive
Nc1ncnc2c1c(-c1cnc3[nH]ccc3c1)nn2C1CCCC1	MCC-26	10.5 µM (active)
CN1CCC(CNc2ccc3ncc(-c4cccc(OC(F)(F)F)c4)n3n2)CC1	MCC-26	inactive
COc1cc2c(Nc3ccc(NC(=O)c4ccccc4)cc3)ncnc2cc1OCCCN1CCOCC1	MCC-26	inactive
COc1cc2ncnc(Nc3ccc(F)c(Cl)c3)c2cc1NC(=O)C=CCN1CCCCC1	MCC-26	inactive
Cn1c2cc(S(C)=O)sc2c2cnn(Cc3cccc(N)c3)c(=O)c21 (stereo not given)	MCC-26	inactive
